SYSTEM_TESTED: C5AR1 (Homo sapiens, UniProt P21730)
Sequence (P21730 whole entry): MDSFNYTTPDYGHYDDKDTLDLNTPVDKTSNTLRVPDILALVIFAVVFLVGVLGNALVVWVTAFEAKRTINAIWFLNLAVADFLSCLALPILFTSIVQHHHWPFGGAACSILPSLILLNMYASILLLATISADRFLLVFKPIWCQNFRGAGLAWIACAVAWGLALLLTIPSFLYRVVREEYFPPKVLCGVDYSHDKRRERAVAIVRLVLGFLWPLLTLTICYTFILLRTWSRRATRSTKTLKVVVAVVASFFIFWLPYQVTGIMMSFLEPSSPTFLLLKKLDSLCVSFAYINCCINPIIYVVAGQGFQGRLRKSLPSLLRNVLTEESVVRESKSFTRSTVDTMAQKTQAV
ASSAY_NAME: In vitro assay: antagonism of C5a-induced beta-arrestin recruitment (PathHunter) in CHO-K1 C5AR1 beta-arrestin cell line
CONDITION_DESCRIPTION: antagonistic activity, 1-10 nM C5a agonist, geometric mean where several measurements, read-out: C5aR IC50
Record form. Attribute: IC50. Fill in for each entry.
Unit nM implied. Number only.

Q: So what does the record say about IC50 for Cc1cccc(F)c1N1CCC(N2Cc3cn(C4CCCCC4[N+](=O)[O-])nc3N(Cc3ccccc3C(F)(F)F)C2=O)CC1 (stereo not shown) ?
Result: 119

Q: So what does the record say about IC50 for `Cc1cccc(F)c1N1CCC(N2Cc3cn(CCN4CCCCC4)nc3N(Cc3ccccc3C(F)(F)F)C2=O)CC1` ?
Result: 91

Q: So what does the record say about IC50 for `Cn1cc2c(n1)CN(C1CCN(c3c(F)cccc3C(F)F)CC1)C(=O)N2Cc1ccccc1C(F)(F)F` ?
Result: 69

Q: So what does the record say about IC50 for `Cc1cccc(F)c1N1CCC(N2Cc3cn(CCN4CCCC4)nc3N(Cc3ccccc3C(F)(F)F)C2=O)CC1` ?
Result: 105

Q: So what does the record say about IC50 for `Cc1cccc(F)c1N1CCC(N2Cc3cn(C(=O)OC(C)C)nc3N(Cc3ccccc3C(F)(F)F)C2=O)CC1` ?
Result: 152

Q: So what does the record say about IC50 for Cc1cccc(F)c1N1CCC(N2Cc3cn(C(C)(NC(=O)OC(C)(C)C)C(F)(F)F)nc3N(Cc3ccccc3C(F)(F)F)C2=O)CC1 (stereo not shown) ?
Result: 75

Q: So what does the record say about IC50 for COc1nccc(C(F)(F)F)c1N1CCC(N2C(=O)N(Cc3ccccc3C(F)(F)F)c3nn(C)cc3C2C)CC1 (single isomer, unassigned) [Example 363] ?
Result: 97

* * *

SYSTEM_TESTED: UniProt P21730
ASSAY_NAME: In vitro assay: antagonism of C5a-induced beta-arrestin recruitment (PathHunter) in CHO-K1 C5AR1 beta-arrestin cell line
CONDITION_DESCRIPTION: antagonistic activity, 1-10 nM C5a agonist, geometric mean where several measurements, read-out: C5aR IC50
PROPERTY_LABEL: pIC50
Reminder that pIC50 means the negative base-10 logarithm of the concentration expressed in mol/L.

Q: So what does the record say about pIC50 for Cc1cccc(F)c1N1CCC(N2Cc3cn(CC4(F)CC4)nc3N(Cc3ccccc3C(F)(F)F)C2=O)CC1 [Example 167] ?
Result: 8.00

Q: So what does the record say about pIC50 for Cn1cc2c(n1)CN(C1CCN(c3c(F)cccc3C3CC3)CC1)C(=O)N2Cc1ccccc1C(F)(F)F [Example 304] ?
Result: 7.46

Q: So what does the record say about pIC50 for COc1nccc(C(F)F)c1N1CCC(N2C(=O)N(Cc3ccccc3C3CC3)c3n[nH]cc3C2C)CC1 (single isomer, unassigned) [Example 371] ?
Result: 5.88

Q: So what does the record say about pIC50 for CC(=O)N1CCC1Cn1cc2c(n1)N(Cc1ccccc1C(F)(F)F)C(=O)N(C1CCN(c3c(C)cccc3F)CC1)C2 (centres unmarked) [Example 114] ?
Result: 6.97

Q: So what does the record say about pIC50 for COc1ccc(C(F)(F)F)c(CN2C(=O)N(C3CCN(c4c(C)cccc4F)CC3)Cc3cn(C)nc32)n1 [Example 38] ?
Result: 7.92

Q: So what does the record say about pIC50 for COc1nccc(C(F)F)c1N1CCC(N2C(=O)N(Cc3ccccc3C(F)(F)F)c3n[nH]cc3C2C)CC1 (single isomer, unassigned) [Example 353] ?
Result: 6.00

Q: So what does the record say about pIC50 for COC[C@@H](O)Cn1cc2c(n1)N(Cc1ccccc1C(F)(F)F)C(=O)N(C1CCN(c3c(C)cccc3F)CC1)C2 [Example 46] ?
Result: 7.68

Q: So what does the record say about pIC50 for Cc1cccc(F)c1N1CCC(N2C(=O)N(Cc3ccccc3C3CC3)c3nn(C)cc3C2C)CC1 (single isomer, unassigned) [Example 318] ?
Result: 6.88

Q: So what does the record say about pIC50 for CC(c1ccccc1C(F)(F)F)N1C(=O)N(C2CCN(c3c(F)cccc3F)CC2)Cc2cn(C)nc21 (single isomer, unassigned) [Example 291] ?
Result: 6.94

Q: So what does the record say about pIC50 for COc1nccc(C)c1N1CCC(N2C(=O)N(Cc3ncccc3C(F)(F)F)c3nn(C)cc3C2C)CC1 (single isomer, unassigned) [Example 357] ?
Result: 6.24

Q: So what does the record say about pIC50 for Cc1cccc(F)c1N1CCC(N2Cc3nn(C)cc3N(C(C)c3ccccc3C(F)(F)F)C2=O)CC1 (single isomer, unassigned) [Example 261] ?
Result: 6.24

Q: So what does the record say about pIC50 for Cc1cccc(F)c1N1CCC(N2C(=O)N(Cc3ccccc3C(F)(F)F)c3cnn(CC(C)(F)F)c3C2C)CC1 (single isomer, unassigned) [Example 256] ?
Result: 6.24

Q: So what does the record say about pIC50 for COc1nccc(C)c1N1CCC(N2Cc3c(cnn3COCC[Si](C)(C)C)N(Cc3ccccc3C(F)(F)F)C2=O)CC1 [Example 216] ?
Result: 7.39

Q: So what does the record say about pIC50 for Cc1cccc(F)c1N1CCC(N2Cc3cn(CC4(O)COC4)nc3N(Cc3ccccc3C(F)(F)F)C2=O)CC1 [Example 171] ?
Result: 7.77

Q: So what does the record say about pIC50 for Cc1cccc(F)c1N1CC(N2Cc3cn(C)nc3N(Cc3ccccc3C(F)(F)F)C2=O)C1 [Example 264] ?
Result: 6.67

Q: So what does the record say about pIC50 for Cc1cccc(F)c1N1CCC(N2C(=O)N(Cc3ccccc3C(F)(F)F)c3cnn(CC(C)(F)F)c3C2C)CC1 (single isomer, unassigned) [Example 255] ?
Result: 7.06

Q: So what does the record say about pIC50 for COc1nccc(C(F)F)c1N1CCC(N2C(=O)N(Cc3ccccc3C(F)(F)F)c3nn(C)cc3C2C)CC1 (single isomer, unassigned) [Example 347] ?
Result: 6.70

Q: So what does the record say about pIC50 for Cc1cccc(F)c1N1CCC(N2C(=O)N(Cc3ccccc3C(F)(F)F)c3c[nH]nc3C2C)CC1 (single isomer, unassigned) [Example 263] ?
Result: 7.68

Q: So what does the record say about pIC50 for C#CC(C)(C)n1cc2c(n1)N(Cc1ccccc1C(F)(F)F)C(=O)N(C1CCN(c3c(C)cccc3F)CC1)C2 [Example 160] ?
Result: 6.83

Q: So what does the record say about pIC50 for Cc1cccc(F)c1N1CCC(N2Cc3cn(C)nc3N(Cc3nc(N(C)C)ccc3C(F)(F)F)C2=O)CC1 [Example 50] ?
Result: 7.07

Q: So what does the record say about pIC50 for COc1nccc(C)c1N1CCC(N2Cc3cn(C)nc3N(C(C)c3ccccc3C(F)(F)F)C2=O)CC1 (single isomer, unassigned) [Example 287] ?
Result: 7.43

Q: So what does the record say about pIC50 for COc1nccc(C)c1N1CCC(N2Cc3cn(C)nc3N(C(C)c3ccccc3C(F)(F)F)C2=O)CC1 (single isomer, unassigned) [Example 286] ?
Result: 7.48

Q: So what does the record say about pIC50 for Cc1cccc(F)c1N1CCC(N2C(=O)N(Cc3ccccc3C(F)(F)F)c3cnn(COCC[Si](C)(C)C)c3C2C)CC1 (centres unmarked) [Example 237] ?
Result: 7.10

Ref: patent US11608341B2
